- Test system: U2OS
- Test method notes: Multiplex assay against U2OS
- Assay type: toxicity, cell-based
- Condition info: human, 12 h, 1 µM, compound concentration 1 uM, replicate 2
Reported endpoint: Population Tubulin-Different-Phenotype (%)
Respond with the bare value in %.

Here is how some compounds turned out for Population Tubulin-Different-Phenotype (%).
Cc1nc(-c2cn3c(n2)-c2ccc(-c4cnn(C(C)(C)C(N)=O)c4)cc2OCC3)n(C(C)C)n1 [TASELISIB]: 25
CN1CCN(CCOc2cc(OC3CCOCC3)c3c(Nc4c(Cl)ccc5c4OCO5)ncnc3c2)CC1 [SARACATINIB]: 10
CNc1nc(NCc2ccc(NS(C)(=O)=O)cc2Cl)cc(-c2ccccn2)n1: 11

With those in mind, consider the next compound.
Ask: For U2OS, provide Population Tubulin-Different-Phenotype (%) of COc1cc(-n2cnc3cc(-c4ccc(Cl)cc4)sc3c2=O)ccc1OCCN1CCCC1 please.
Result: 34
